Data credit: ChEMBL document CHEMBL1157539

Tested on: HepG2
Test: GSK_TCMDC: Percent inhibition of human HepG2 cell line. Test compounds present at 10uM.
Assay type: functional
For each entry below, report its Inhibition value.
Respond numerically; units are % and should not be typed.

Query: I'd like to know its Inhibition. The compound in question is O=C1COc2ccc3ccccc3c21
Reply: 0

Query: I'd like to know its Inhibition. The compound in question is CCN(C(=O)CSc1cc(C)c2cc(C)cc(C)c2n1)C1CCS(=O)(=O)C1 (stereo not drawn)
Reply: 5

Query: I'd like to know its Inhibition. The compound in question is O=C(O)C(F)(F)F.O=c1ccc2ccc(F)c3c2n1CC3CN1CCC(NCc2cccc(-c3cccs3)c2)CC1 (stereo not drawn)
Reply: 17

Query: I'd like to know its Inhibition. The compound in question is CCCCN1CCCC[C@H]1[C@@H](O)c1ccnc2ccc(OCC)cc12
Reply: 6

Query: I'd like to know its Inhibition. The compound in question is Cc1cccc2nc(-c3cccc(-c4cccc(CNC(C)C)c4)c3)[nH]c12.O=C(O)C(F)(F)F
Reply: 29

Query: I'd like to know its Inhibition. The compound in question is COc1ccc(N2CCN(CCCCNCc3ccc(NC(=O)c4cc(Cl)cc(Cl)c4)cc3)CC2)c(OC)c1
Reply: 39

Query: I'd like to know its Inhibition. The compound in question is O=C(Nc1ccc(-c2ccccc2)cc1)Nc1cccc(Cn2ncc(N3CCNCC3)c(Cl)c2=O)c1.O=C(O)C(F)(F)F
Reply: 30

Query: I'd like to know its Inhibition. The compound in question is CCN1CCC(N(Cc2ccc(-c3ccc(C(F)(F)F)cc3)cc2)C(=O)Cn2c(CCc3cccc(F)c3F)nc(=O)c3ccccc32)CC1.O=C(O)C(O)C(O)C(=O)O
Reply: 99

Query: I'd like to know its Inhibition. The compound in question is COc1cccc(C(C)(C)NC[C@@H](O)[C@H](Cc2ccccc2)NC(=O)c2cc(C3CCCC3)cc(N3CCCCS3(=O)=O)c2F)c1.O=CO
Reply: 16

Query: I'd like to know its Inhibition. The compound in question is CC(C)CC1c2[nH]c3ccccc3c(=O)c2CN1C(=O)OC(C)(C)C (stereo not drawn)
Reply: 2

Query: I'd like to know its Inhibition. The compound in question is COc1cc(CCNc2nc(NCc3ccccc3-c3ccccc3)nc(N3CCC(N)CC3)n2)ccc1O.O=C(O)C(F)(F)F
Reply: 25

Query: I'd like to know its Inhibition. The compound in question is Cc1cccc(CN2CCCN(Cc3ccc(C(=O)Nc4ccc(C(C)(C)C)cc4)cc3)CC2)c1.O=C(O)C(F)(F)F
Reply: 57

Query: I'd like to know its Inhibition. The compound in question is COc1cc2nc(Nc3ccc4c(cnn4Cc4ccccc4)c3)nc(Nc3ccc4c(cnn4Cc4ccccc4)c3)c2cc1OC
Reply: 4

Query: I'd like to know its Inhibition. The compound in question is Cc1cc(N2CCCCC2)nc2ccc(NC(=O)c3cccc([N+](=O)[O-])c3)cc12
Reply: 9

Query: I'd like to know its Inhibition. The compound in question is COc1ccc(CNCCCCCCCNCc2ccc(Cl)c(Cl)c2)cc1Cl
Reply: 27

Query: I'd like to know its Inhibition. The compound in question is CNCCCNCc1ccc(-c2ccc(F)c(Cl)c2)o1.Cl
Reply: 22

Query: I'd like to know its Inhibition. The compound in question is CCc1c(CCNCCc2cccc(CCNCCc3ccc(OC)c(OC)c3CC)c2)ccc(OC)c1OC.Cl
Reply: 100

Query: I'd like to know its Inhibition. The compound in question is O=C(Nc1ccc(-c2ccccc2)cc1)Nc1cccc(Cn2nc(Cl)c(N3CCNCC3)cc2=O)c1.O=C(O)C(F)(F)F
Reply: 15

Query: I'd like to know its Inhibition. The compound in question is CCC(CC)CN1C(=O)C(C)(c2ccccc2)N=C1N.O=C(O)C(F)(F)F (stereo not drawn)
Reply: 1

Query: I'd like to know its Inhibition. The compound in question is CC(Cc1ccc(NC(=O)c2ccc(CNCc3ccccc3)cc2)cc1)N(CCc1cccc(Cl)c1)C(=O)OC(C)(C)C (stereo not drawn)
Reply: 16

Query: I'd like to know its Inhibition. The compound in question is Clc1cc(Nc2ccnc3ccc(Br)cc23)ccc1Oc1ccc(Cl)c2ccccc12
Reply: 6

Query: I'd like to know its Inhibition. The compound in question is Br.CCc1ccccc1OCCCON1C(=N)N=C(N)NC1(C)C
Reply: 77

Query: I'd like to know its Inhibition. The compound in question is COc1ccc2nccc([C@@H](O)CN3CCC(NCc4cc5ccccc5[nH]4)CC3)c2n1.O=C(O)C(=O)O
Reply: 17

Query: I'd like to know its Inhibition. The compound in question is COc1ccc(CNCc2ccccc2)cc1-c1ccc(S(=O)(=O)NCCN2CCCC2)cc1.O=C(O)C(F)(F)F
Reply: 38

Query: I'd like to know its Inhibition. The compound in question is O=C(NCC1CCN(CC2CCCCC2)C1)c1cc(-c2cccc(Cl)c2)cs1.O=C(O)C(F)(F)F (stereo not drawn)
Reply: 51

Query: I'd like to know its Inhibition. The compound in question is CCOc1ccc2c(N/N=C/c3cccc([N+](=O)[O-])c3)cc(C)nc2c1
Reply: 4

Query: I'd like to know its Inhibition. The compound in question is COc1ccc2[nH]c3ccccc3c(=O)c2c1
Reply: 0

Query: I'd like to know its Inhibition. The compound in question is CCN(c1ccc(F)cc1)S(=O)(=O)c1cc(Br)cc2c1N(C(=O)C1CC1)CC2
Reply: 0
